B1: Azoarcus group I ribozyme (parent)
chain: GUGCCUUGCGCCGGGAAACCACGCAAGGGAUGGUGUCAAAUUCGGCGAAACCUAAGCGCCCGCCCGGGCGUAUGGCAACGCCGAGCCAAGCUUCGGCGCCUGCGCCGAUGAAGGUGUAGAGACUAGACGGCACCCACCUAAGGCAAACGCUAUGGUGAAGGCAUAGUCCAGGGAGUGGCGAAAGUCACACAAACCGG

- Variants of: B1
- experiment.description: reverse-splicing fitness (ratio to wild type); higher = more active; in vitro selection; Mg2+ level not given
Please mark TRUE if the recorded reverse-splicing fitness is equal to or greater than 0.01, and FALSE if it falls below.

Qu. Could you verify whether the entry C82A A111C A120G A145G U176G shows reverse-splicing fitness of no less than 0.01?
Ans. FALSE

Qu. Could you verify whether the entry C82U A111G A145G C169A U176C shows reverse-splicing fitness of no less than 0.01?
Ans. TRUE

Qu. Could you verify whether the entry C82G A111U A120G A145U C150A C169A U176C shows reverse-splicing fitness of no less than 0.01?
Ans. TRUE

Qu. Could you verify whether the entry C82U A120C A145C C150G U176C shows reverse-splicing fitness of no less than 0.01?
Ans. TRUE

Qu. Could you verify whether the entry C82G A111C A120C A145G C150G U176G shows reverse-splicing fitness of no less than 0.01?
Ans. FALSE

Qu. Could you verify whether the entry C82A A111C A120C A145U C150A C169A U176C shows reverse-splicing fitness of no less than 0.01?
Ans. TRUE

Qu. Could you verify whether the entry C82G A111U A120G A145G C150U C169G U176G shows reverse-splicing fitness of no less than 0.01?
Ans. FALSE

Qu. Could you verify whether the entry C82U A111U A120G A145C C150A C169U shows reverse-splicing fitness of no less than 0.01?
Ans. FALSE

Qu. Could you verify whether the entry C82G A111G A120G A145G C150A C169A shows reverse-splicing fitness of no less than 0.01?
Ans. TRUE

Qu. Could you verify whether the entry C82U A111G A120G C150A C169U U176G shows reverse-splicing fitness of no less than 0.01?
Ans. FALSE

Qu. Could you verify whether the entry C82G A111G A145G C150U C169U U176A shows reverse-splicing fitness of no less than 0.01?
Ans. TRUE

Qu. Could you verify whether the entry C82A A120U A145C C169U U176G shows reverse-splicing fitness of no less than 0.01?
Ans. FALSE

Qu. Could you verify whether the entry C82U A111U A145G C150A C169U shows reverse-splicing fitness of no less than 0.01?
Ans. TRUE

Qu. Could you verify whether the entry A120U A145C C169A U176C shows reverse-splicing fitness of no less than 0.01?
Ans. FALSE

Qu. Could you verify whether the entry C82A A120G A145C C150A C169U U176C shows reverse-splicing fitness of no less than 0.01?
Ans. TRUE

Qu. Could you verify whether the entry C82A A120C A145U C150U U176G shows reverse-splicing fitness of no less than 0.01?
Ans. FALSE

Qu. Could you verify whether the entry C82G A111C A120C C150A U176A shows reverse-splicing fitness of no less than 0.01?
Ans. TRUE

Qu. Could you verify whether the entry C82U A111U A145C C169A U176A shows reverse-splicing fitness of no less than 0.01?
Ans. FALSE

Qu. Could you verify whether the entry A111G A120C C150A C169G U176C shows reverse-splicing fitness of no less than 0.01?
Ans. TRUE

Qu. Could you verify whether the entry C82U A111G C150G C169U U176C shows reverse-splicing fitness of no less than 0.01?
Ans. TRUE

Qu. Could you verify whether the entry C82G A111G A120G A145C C169G shows reverse-splicing fitness of no less than 0.01?
Ans. TRUE

Qu. Could you verify whether the entry C82U A120C A145U C150U C169A shows reverse-splicing fitness of no less than 0.01?
Ans. FALSE

Qu. Could you verify whether the entry C82U A111U A120C A145C C150G C169U shows reverse-splicing fitness of no less than 0.01?
Ans. FALSE

Qu. Could you verify whether the entry C82A A111U A120C A145G C150G C169G U176G shows reverse-splicing fitness of no less than 0.01?
Ans. FALSE

Qu. Could you verify whether the entry C82U A111U A145C C150U C169G U176G shows reverse-splicing fitness of no less than 0.01?
Ans. FALSE

Qu. Could you verify whether the entry C82U A111U A145U C150U U176A shows reverse-splicing fitness of no less than 0.01?
Ans. TRUE

Qu. Could you verify whether the entry C82G A111G C150U C169G U176C shows reverse-splicing fitness of no less than 0.01?
Ans. TRUE

Qu. Could you verify whether the entry C82A A111U A120G C150U C169G U176A shows reverse-splicing fitness of no less than 0.01?
Ans. TRUE

Qu. Could you verify whether the entry C82G A111U A145U C150G C169G U176G shows reverse-splicing fitness of no less than 0.01?
Ans. FALSE

Qu. Could you verify whether the entry A111U A145U C150A C169U U176A shows reverse-splicing fitness of no less than 0.01?
Ans. TRUE

Qu. Could you verify whether the entry C82A A111C A120C A145C C150A C169G U176A shows reverse-splicing fitness of no less than 0.01?
Ans. TRUE

Qu. Could you verify whether the entry C82A A111U A120C A145C C150A C169U shows reverse-splicing fitness of no less than 0.01?
Ans. TRUE

Qu. Could you verify whether the entry C82A A111G A120U A145U C150A C169G U176C shows reverse-splicing fitness of no less than 0.01?
Ans. FALSE

Qu. Could you verify whether the entry C82U A111C C169U U176C shows reverse-splicing fitness of no less than 0.01?
Ans. TRUE

Qu. Could you verify whether the entry A111G A120C A145G U176A shows reverse-splicing fitness of no less than 0.01?
Ans. TRUE

Qu. Could you verify whether the entry C82U A120C A145C C169U U176C shows reverse-splicing fitness of no less than 0.01?
Ans. TRUE

Qu. Could you verify whether the entry A120U C169A U176G shows reverse-splicing fitness of no less than 0.01?
Ans. FALSE

Qu. Could you verify whether the entry C82G A111C A120C A145G C150U U176C shows reverse-splicing fitness of no less than 0.01?
Ans. TRUE

Source listed as the RNAGym collection of RNA variant scans (doi:10.1093/molbev/msab373).
